- studyTarget: Odc2p (Saccharomyces cerevisiae)
- Construct: made in house; host or cells: S. cerevisiae odc1Δodc2Δ (YPH499 background) carrying pYES2-based pODC2; purified from mitochondria on Ni-NTA agarose
- experimentalProtocol: Dependence on internal substrate of [14C]oxoglutarate uptake into proteoliposomes reconstituted with recombinant Odc2p
- Format: biochemical
- settings: Odc2p; proteoliposomes preloaded with various substrates
measuredProperty: [14C]oxoglutarate uptake with the internal substrate (in words)

1) O=C(O)CC(=O)O [Malonate]	very low activity
2) NC(=O)CC[C@H](N)C(=O)O [glutamine]	no exchange
3) C[N+](C)(C)CC(O)CC(=O)[O-] (stereo not drawn) [carnitine]	no exchange
4) O=C(O)CCCCCCC(=O)O [Suberate]	very low activity
5) CC[C@H](O)C(=O)O [2-hydroxybutyrate]	no exchange
6) CCCC(=O)C(=O)O [2-oxovalerate]	no exchange

* * *

Inhibition (%) of [14C]oxoglutarate/oxoglutarate exchange values for the molecules below.
- studyTarget: Odc2p (Saccharomyces cerevisiae, UniProt Q99297)
- Construct: made in house; host or cells: S. cerevisiae odc1Δodc2Δ (YPH499 background) carrying pYES2-based pODC2; purified from mitochondria on Ni-NTA agarose
- Sequence (Q99297 whole entry): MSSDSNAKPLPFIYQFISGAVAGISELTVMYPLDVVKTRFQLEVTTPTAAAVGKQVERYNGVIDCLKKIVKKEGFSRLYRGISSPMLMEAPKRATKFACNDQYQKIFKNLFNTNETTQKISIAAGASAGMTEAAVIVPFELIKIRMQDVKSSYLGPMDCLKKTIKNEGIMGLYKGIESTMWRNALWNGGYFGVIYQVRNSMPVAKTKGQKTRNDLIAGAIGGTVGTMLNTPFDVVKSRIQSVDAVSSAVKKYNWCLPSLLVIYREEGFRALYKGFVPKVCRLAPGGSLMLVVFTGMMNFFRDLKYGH
- experimentalProtocol: Effect of inhibitors and external compounds on the [14C]oxoglutarate/oxoglutarate exchange by proteoliposomes reconstituted with Odc2p
- Format: biochemical
- settings: Odc2p; 20 mM internal oxoglutarate, 0.4 mM [14C]oxoglutarate, 45 seconds; inhibitors 4 mM, except mercurials 10 μM, carboxyatractyloside 0.1 mM, N-ethylmaleimide and α-cyanocinnamate 2 mM
measuredProperty: Inhibition (%) of [14C]oxoglutarate/oxoglutarate exchange

1) c1ccc(-c2ccnc3c2ccc2c(-c4ccccc4)ccnc23)cc1	89%
2) CCCCC(C(=O)O)C(=O)O [Butylmalonate]	25%
3) O=C(O)CC(C(=O)O)c1ccccc1 (stereo not shown) [Phenylsuccinate]	22%
4) [Cl][Hg][Cl] [HgCl2, mercuric chloride]	98%
5) N#C/C(=C\c1ccccc1)C(=O)O [α-Cyanocinnamate]	80%
6) C=C1[C@@H]2CC[C@H]3[C@]4(C)C[C@H](O[C@@H]5O[C@H](CO)[C@@H](OS(=O)(=O)O)[C@H](OS(=O)(=O)O)[C@H]5OC(=O)CC(C)C)CC(C(=O)O)(C(=O)O)[C@H]4CC[C@]3(C2)[C@H]1O [Carboxyatractyloside]	10%
7) O=C(O)c1cccc(C(=O)O)c1C(=O)O [1,2,3-Benzenetricarboxylate]	37%
8) COC(CNC(=O)c1ccccc1OCC(=O)O)[CH2][Hg][OH] (stereo not shown)	100%
9) O=S(=O)(O)c1cc[c]([Hg][Cl])cc1 [p-Chloromercuriphenylsulfonate]	100%
10) CCN1C(=O)C=CC1=O [N-Ethylmaleimide]	43%

* * *

- studyTarget: Odc1p (Saccharomyces cerevisiae)
- Construct: made in house; host or cells: S. cerevisiae odc1Δodc2Δ (YPH499 background) carrying pYES2-based pODC1; purified from mitochondria on Ni-NTA agarose
- Sequence (Q03028 whole entry): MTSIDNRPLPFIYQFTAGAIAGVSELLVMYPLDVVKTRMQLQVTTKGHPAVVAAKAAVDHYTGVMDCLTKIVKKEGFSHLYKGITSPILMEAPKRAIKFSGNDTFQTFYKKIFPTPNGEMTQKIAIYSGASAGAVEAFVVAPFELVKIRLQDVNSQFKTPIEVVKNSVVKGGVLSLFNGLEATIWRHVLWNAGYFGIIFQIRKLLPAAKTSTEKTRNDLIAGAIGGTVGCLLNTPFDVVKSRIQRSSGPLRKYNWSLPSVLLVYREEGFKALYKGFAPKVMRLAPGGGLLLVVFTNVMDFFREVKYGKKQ
- experimentalProtocol: Dependence on internal substrate of [14C]oxoglutarate uptake into proteoliposomes reconstituted with recombinant Odc1p
- Assay type: biochemical
- settings: Odc1p; proteoliposomes preloaded with various substrates
measuredProperty: [14C]oxoglutarate uptake with the internal substrate (in words)

1) NC(CCCC(=O)O)C(=O)O (stereo not shown) [2-aminoadipate]	no exchange
2) NC(CCCCC(=O)O)C(=O)O (stereo not shown) [2-aminopimelate]	no exchange
3) O=C(O)CCCCCC(=O)O [Pimelate]	taken up efficiently
4) O=C(O)CCC(=O)C(=O)O [2-Oxoglutarate]	taken up efficiently
5) O=C(O)CCCCC(=O)O [Adipate]	taken up efficiently
6) O=C(O)/C=C\C(=O)O [Maleate]	very low activity
7) O=C(O)/C=C/C(=O)O [Fumarate]	very low activity
8) Nc1ncnc2c1ncn2[C@@H]1O[C@H](COP(=O)(O)OP(=O)(O)OP(=O)(O)O)[C@@H](O)[C@H]1O	no exchange
9) CCC(=O)C(=O)O [2-oxobutyrate]	no exchange
10) O=C(O)C(=O)O [oxalate]	no exchange
11) O=C(O)CC(=O)O [Malonate]	very low activity
12) Nc1ncnc2c1ncn2[C@@H]1O[C@H](COP(=O)(O)OP(=O)(O)O)[C@@H](O)[C@H]1O	no exchange

Values were extracted from patent US20020155192A1.
